Entries annotated with measured interaction score
Molecular target: T1, 4H335-AA
T1 chain: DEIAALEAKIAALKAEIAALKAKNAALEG
Assay: two-hybrid library CCmax;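 also: natural log of median RNA to DNA barcode read ratio; higher means stronger binding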
Settings: mean of both orientations
Form: value (number only, do not type unit).

Consider the reported interaction score for these binders:
[
  {
    "binder": "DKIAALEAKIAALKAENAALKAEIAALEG [4H2393-AA]",
    "interaction score": -1.56
  },
  {
    "binder": "DKNAALEAEIAALEAKIAALEAKNAALKG [4H3112-AA]",
    "interaction score": 0.64
  },
  {
    "binder": "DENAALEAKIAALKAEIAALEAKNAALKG [4H1352-AA]",
    "interaction score": 0.334
  },
  {
    "binder": "DKIAALKAKNAALEAEIAALEAKIAALEG [4H2949-AA]",
    "interaction score": -0.276
  }
]

Ask | Return reported interaction score; argument: DKNAALEAKIAALEAEIAALKAKNAALEG [4H3343-AA]
Reply | 0.806

Ask | Now try DKIAALEAENAALKAKIAALEAKIAALEG [4H2277-AA] .
Reply | -1.2

Ask | Now try DKIAALEAKNAALKAEIAALKAEIAALEG [4H2505-AA] .
Reply | -1.01
